target_of_assay: T1, MERS spike extracellular domain (Middle East respiratory syndrome …, UniProt K9N5Q8 18-1296)
T1 construct: extracellular domain
experiment_notes: ELISA
parameter_measured: binding result

See these solved cases before continuing.
* FD 5E (antibody, V domains shown) VH: EVQLVESGGVVVQPGGSLRLSCAASGFTFDDYAMHWVRQAPGKGLEWVSLISWDGGSTYYADSVKGRFTISRDNSKNSLYLQMNSLRAEDTALYYCAKDSVRFRYYYGMDVWGQGTTVTVSS VL: EIVLTQSPATLSLSPGERATLSCRASQSVSSYLAWYQQKPGQAPRLLIYDASNRATGIPARFSGSGSGTDFTLTISSLEPEDFAVYYCQQRSNWPLTFGPGTKVDIK | no binding
* FD 1D (antibody, V domains shown) VH: EVQLVESGGGVVQPGRSLRLSCAASGFTFSSYAMHWVRQAPGKGLEWVAVISYDGSNKYYADSVKGRFTISRDNSKNTLYLQMNSLRAEDTAVYYCARAGSGSYLNWFDPWGQGTLVTVSS VL: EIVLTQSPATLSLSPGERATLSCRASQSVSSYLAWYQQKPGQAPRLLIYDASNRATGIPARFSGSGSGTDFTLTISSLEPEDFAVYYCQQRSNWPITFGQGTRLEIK | binds
* EW 9C-1 (antibody, V domains shown) VH: EVQLVESGGGVVQPGASLRLSCVASGFTFNNFGFHWVRQAPGKGLEWLAVISYEGSKTYYAESLKGRFTISRDTSKNTVYLQMNSLRAEDTAVYYCARATSIFWFGEGRNWFDPWGQGALVTVSS VL: EIVMTQSPGTVSLSAGERATLSCRASQNVGTDLAWYVQRPGQAPRLLIYDTSNRATGIPARFSGRGSGTDFTLTIDSLEPEDFAVYYCQQRSNWPLTFGGGTKVEIK | binds
* EW 9C (antibody, V domains shown) VH: EVQLVESGGGVVQPGASLRLSCVASGFTFNNFGFHWVRQAPGKGLEWLAVISYEGSKTYYAESLKGRFTISRDTSKNTVYLQMNSLRAEDTAVYYCARATSIFWFGEGRNWFDPWGQGTMVTVSS VL: EIVLTQSPGTVSLSAGERATLSCRASQNVGTDLAWYVQRPGQAPRLLIYDTSNKATGIPARFSGRGSGTDFTLTIDSLEPEDFAVYYCQQRSNWPLTFGGGTKVEIR | binds
* FI 1C (antibody, V domains shown) VH: EVQLVESGGGLVKPGGSLRLSCAASGFTFSDYYMSWIRQAPGKGLEWVSYISSSGSTIYYADSVKGRFTISRDNAKNSLYLQMNSLRAEDTAVYYCARRSNRFLIAFDIWGQGTMVTVSS VL: QSALTQPASVSGSPGQTITISCTGTSSDVGGYNYVSWYQQHPGKAPKLMIYEVSNRPSGVSNRFSGSKSGNTASLTISGLQAEDEADYYCSSYTSSSTLVVFGGGTKLTVP | no binding

Prompt: Specify binding result for EW 9B (antibody, V domains shown) VH: EVQLVQSGAEVKKPGASVKVSCKASGYTFTSYYMHWVRQAPGQGLEWMGIINPSGGSTSYAQKFQGRVTMTRDTSTSTVYMELSSLRSEDTAVYYCAREDGVVPAANLMISLEDYYYYGMDVWGQGTTVTVSS VL: EIVLTQSPATLSLSPGERATLSCRASQSVSSYLAWYQQKPGQAPRLLIYDASNRATGIPARFSGSGSGTDFTLTISSLEPEDFAVYYCQQRSNWPLTFGGGTKVDIK and stop.
Completion: no binding

Prompt: Specify binding result for FJ 10B (antibody, V domains shown) VH: QVQLVQSGAEVKKPGESLRISCKGSGYSFTSYWISWVRQMPGKGLEWMGRIDPSDSYTNYSPSFQGHVTISADKSISTAYLQWSSLKASDTAMYYCARLDPRYGPDYYGMDVWGQGTTVTVSS VL: AIRMTQSPSSLSASVGDRVTITCRASQSISSYLNWYQQKPGKAPKLLIHAASSLQSGVPSRFSGSGSGTDFTLTMSSLQPEDFATYYCQQSYSTPLTFGGGTKVEIR and stop.
Completion: no binding

Prompt: Specify binding result for FN 12A (antibody, V domains shown) VH: QVQLVQSGAEVKKPGSSVKVSCKASGGTFSSYAISWVRQAPGQGLEWMGRIIPILGIANYAQKFQGRVTITADKSTSTAYMELSSLRSEDTAVYYCARSGCSSTSCPSNLYYYYYGMDVWGQGTTVTVSS VL: QSVLTQPPSVSAAPGQKVTISCSGSSSNIGNNYVSWYQQLPGTAPKLLIYDNNKRPSGIPDRFSGSKSGTSATLGITGLQTGDEADYYCGTWDSSLSALVFGGGTKLTVL and stop.
Completion: binds

Prompt: Specify binding result for FB 9D (antibody, V domains shown) VH: QVQLVESGAEVKKPGESLKISCQGSGYRFNSYWIAWVRQMPGKGLEWMGSIFPTDSDVRYNPSFQGQVTISADKSISFAYLQWSSLKASDTAIYYCARHWASMVRGVIRASHYYGMDVWGQGTTVTVSS VL: QPVLTQPPSASGSPGQSVTISCSGASSDIGKYNYVSWYQQLPGKAPKLLIYEVTKRPSGVPDRFSGSKSGNTASLTVSGLQADDEADYYCSSYAFGGSDTRVFGGGTKLTVL and stop.
Completion: binds

Prompt: Specify binding result for FG 12C (antibody, V domains shown) VH: EVQLVESGGGLVQPGRSLRLSCAASGFTFDDYAMHWVRQAPGKGLEWVSGISWNSGSIGYADSVKGRFTISRDNAKNSLYLQMNSLRAEDTALYYCAKDMRVHDYGDYYFDYWGQGTLVTVSS VL: SYELTQPPSVSVAPGKTARITCGGNNIGSKSVHWYQQKPGQAPVLVIYYDSDRPSGIPERFSGSNSGNTATLTISRVEAGDEADYYCQVWDSSSDHPVFGGGTKLTVL and stop.
Completion: no binding

Data provenance is patent US20230279079A1.
